- target system: Neuraminidase (Influenza A virus (strain A/Brevig Mission/1/1918 H1N1), UniProt Q9IGQ6)
- Sequence (Q9IGQ6 whole entry): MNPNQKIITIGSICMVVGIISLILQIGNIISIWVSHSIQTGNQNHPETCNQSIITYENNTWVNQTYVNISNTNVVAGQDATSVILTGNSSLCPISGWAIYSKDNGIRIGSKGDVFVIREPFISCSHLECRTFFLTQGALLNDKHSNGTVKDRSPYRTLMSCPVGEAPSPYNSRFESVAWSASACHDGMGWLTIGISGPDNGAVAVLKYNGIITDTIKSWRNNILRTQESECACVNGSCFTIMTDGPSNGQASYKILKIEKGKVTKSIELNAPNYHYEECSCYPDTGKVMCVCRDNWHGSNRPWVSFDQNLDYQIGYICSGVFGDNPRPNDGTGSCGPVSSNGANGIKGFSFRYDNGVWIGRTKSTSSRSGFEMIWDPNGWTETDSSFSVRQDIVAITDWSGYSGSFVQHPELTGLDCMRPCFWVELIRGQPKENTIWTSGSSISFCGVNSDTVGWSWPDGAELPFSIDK
- test name: Inhibition of recombinant influenza A virus H1N1 A/Bervig_Mission/1/18 sialidase activity using 4-methylumbelliferyl-alpha-D-N-acetylneuraminic acid sodium salt hydrate as substrate by fluorimetric analysis
pIC50: −log10 of the molar value.
// values below are reported pIC50
observable: pIC50

- chem smiles: "CC(C)=CC=C(OC(=O)CC(C)(C)O)c1cc(O)c2c(O)ccc(O)c2c1O"
  observable: "pIC50"
  test result: 4.39
- chem smiles: "CC(C)=CC=C(OC(=O)C(C)C)c1cc(O)c2c(O)ccc(O)c2c1O"
  observable: "pIC50"
  test result: 4.39
